Assay: NCI Yeast Anticancer Drug Screen. Data for the bub3 strain (AID 167)
Details: S. cerevisiae bub3 mutant strain, at 5.0 µM (retest, dose inferred, filed as 0.5), hits give high values
About 79,000 compounds went through this panel and 15% of them were active in at least one assay; those are over-represented in the sample as a whole.
value kind: growth inhibition (%)

[[record]]
compound = "COc1cc2c(cc1O)C1Cc3ccc(OC)c(O)c3C(C2)N1C (stereo not given)"
uom = "%"
measured_result = 16

[[record]]
compound = "Cc1cc(NS(=O)(=O)c2ccc(Nc3c4ccccc4nc4c(C(=O)NC(CO)(CO)CO)cccc34)cc2)no1"
uom = "%"
measured_result = 0

[[record]]
compound = "CCCCC(CCc1ccccc1)(C(=O)O)c1ccccc1 (stereo not given)"
uom = "%"
measured_result = 72

[[record]]
compound = "CCC[CH2][Ge]([CH2]CCC)([CH2]CCC)[O]C(C)=O"
uom = "%"
measured_result = -2

[[record]]
compound = "COc1ccc(C(=O)Cc2nc3nnc(NC(=O)Nc4ccc(Cl)cc4)n3nc2CC(=O)c2ccc(OC)cc2)cc1"
uom = "%"
measured_result = 7


* * *

Experiment: NCI Yeast Anticancer Drug Screen. Data for the sgs1 mgt1 strain (AID 161);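 further: 0% = growth of cultures given vehicle only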
Conditions: S. cerevisiae sgs1 mgt1 strain, at 50.0 µM (retest, dose inferred, filed as 5.0), hits give high values
The panel holds about 79,000 compounds, 15% with a hit somewhere; the sample as a whole holds those more often.
value kind: growth inhibition (%)

[[record]]
molecule = "O=C(NCCCNCCNC(=O)c1cc(-c2ccccc2)nc2ccccc12)c1cc(-c2ccccc2)nc2ccccc12"
value_kind = "growth inhibition"
measured_result = 89

[[record]]
molecule = "CC(=O)N1c2ccccc2C2=NN=C(N(C)C)SC21 (stereo not drawn)"
value_kind = "growth inhibition"
measured_result = 98

[[record]]
molecule = "CCc1cccc(C(C)(C)C)c1NC(=S)N/C=C(\\c1ccccc1)S(=O)Cc1ccccc1 (stereo not drawn)"
value_kind = "growth inhibition"
measured_result = 56

[[record]]
molecule = "CC(=O)/C=C1\\C(=O)Nc2ccccc21"
value_kind = "growth inhibition"
measured_result = 92

[[record]]
molecule = "O=[N+]([O-])c1cccc2nc3ccccc3c(NCCO)c12"
value_kind = "growth inhibition"
measured_result = 95

[[record]]
molecule = "Cc1cc(C)c(C(=O)/C=C/C(=O)c2ccccc2)c(C)c1"
value_kind = "growth inhibition"
measured_result = 96

[[record]]
molecule = "O=C(CNC(=O)c1ccccc1)NNc1ccccc1"
value_kind = "growth inhibition"
measured_result = 67

[[record]]
molecule = "O=S1(=O)CS(=O)(=O)OCCCO1"
value_kind = "growth inhibition"
measured_result = 15

[[record]]
molecule = "O=c1cccccc1O"
value_kind = "growth inhibition"
measured_result = 99

[[record]]
molecule = "CC1=C(C(=O)Nc2ccccc2)C(c2cccc([N+](=O)[O-])c2)C(C(=O)Nc2ccccc2)=C(C)N1"
value_kind = "growth inhibition"
measured_result = 30

[[record]]
molecule = "O=C1CCSC(=S)N1c1ccc(N=Nc2ccccc2)cc1"
value_kind = "growth inhibition"
measured_result = 94

[[record]]
molecule = "OC(CNc1ccnc2cc(Cl)ccc12)CNc1ccnc2cc(Cl)ccc12"
value_kind = "growth inhibition"
measured_result = 46

[[record]]
molecule = "O=C(O)CSc1nc(-c2ccccc2)c(-c2ccccc2)n1-c1ccccn1"
value_kind = "growth inhibition"
measured_result = 4

[[record]]
molecule = "CN(C)c1c([N+](=O)[O-])cc(N2C(=O)C=CC2=O)cc1[N+](=O)[O-]"
value_kind = "growth inhibition"
measured_result = 100

[[record]]
molecule = "O=C(CCN1CCCCC1)/C(=C\\c1ccc(Cl)cc1)c1ccccc1"
value_kind = "growth inhibition"
measured_result = 100

[[record]]
molecule = "O=C(NCCN1CCN2Cc3[nH]c4ccccc4c3CC2C1)c1ccc(Cl)cc1 (stereo not drawn)"
value_kind = "growth inhibition"
measured_result = 50

[[record]]
molecule = "OC1(C2CCCCC2)c2ccccc2Cc2ccccc21"
value_kind = "growth inhibition"
measured_result = 93

[[record]]
molecule = "C[N+](C)=c1ccc2nc3c(cc(NCCCNc4cc5oc6cc(=[N+](C)C)ccc-6nc5c5ccccc45)c4ccccc43)oc-2c1"
value_kind = "growth inhibition"
measured_result = 70

[[record]]
molecule = "O=C1C=CC(=O)N1C1c2ccccc2-c2ccccc21"
value_kind = "growth inhibition"
measured_result = 100

[[record]]
molecule = "O=C(O)Cc1ccccc1CCc1ccccc1Cl"
value_kind = "growth inhibition"
measured_result = 71

[[record]]
molecule = "CC1=NN(c2nc(N)nc(C(C)Sc3cc(Cl)c(C)cc3S(N)(=O)=O)n2)C(C)(C)C1 (stereo not drawn)"
value_kind = "growth inhibition"
measured_result = 1

[[record]]
molecule = "O=C(/C=C/C(=O)OCCCl)OCCCl"
value_kind = "growth inhibition"
measured_result = 62

[[record]]
molecule = "CCCCCCCCCCCCCCCCN(CC)CC"
value_kind = "growth inhibition"
measured_result = 100


* * *

Assay: NCI Yeast Anticancer Drug Screen. Data for the cln2 rad14 strain (AID 165);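 further: 0% = growth equal to vehicle treated cultures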
Conditions: S. cerevisiae cln2 rad14 strain, at 5.0 µM (retest, dose inferred, filed as 0.5)
About 79,000 compounds went through this panel and 15% of them were active in at least one assay; those are over-represented in the sample as a whole. Calls of active or inactive are those of the source. Rule as the data show it: active = growth inhibition above about 70%; inactive = the rest.
Classes used: label 1 (active), label 0 (inactive)

[[record]]
compound = "Oc1ccccc1C(c1ccccc1O)C(Cl)(Cl)Cl"
qualitative_label = "label 1"

[[record]]
compound = "O=C1C=CC(=O)c2c1oc1ccccc21"
qualitative_label = "label 0"

[[record]]
compound = "O=C(O)CCC(=O)c1ccc(C2CCCC2)c2ccccc12"
qualitative_label = "label 0"

[[record]]
compound = "CCCCN(CCCC)Cc1cc(Nc2c3ccc(Cl)cc3nc3ccc(OC)cc23)ccc1O"
qualitative_label = "label 0"

[[record]]
compound = "COC(=O)C([NH-])c1ccccc1.COC(=O)C([NH-])c1ccccc1.[Cl][Pt+2][Cl] (stereo not drawn)"
qualitative_label = "label 0"

[[record]]
compound = "O=c1oc2cc(N=Cc3ccc4c(c3)OCO4)ccc2c2ccccc12"
qualitative_label = "label 0"

[[record]]
compound = "O=C(Nc1cccc(Br)c1)Oc1ccc(Cl)c2cccnc12"
qualitative_label = "label 0"

[[record]]
compound = "COc1ccccc1/C=C\\C(=O)c1ccccc1"
qualitative_label = "label 0"

[[record]]
compound = "CCN(CC)c1ccc(N=Nc2ccc(-c3nc4cccn(C)c-4n3)cc2)cc1"
qualitative_label = "label 0"

[[record]]
compound = "C1=NCCN=Cc2ccccc2NCCNc2ccccc21"
qualitative_label = "label 0"

[[record]]
compound = "N#CSCc1c(Cl)cccc1Cl"
qualitative_label = "label 0"

[[record]]
compound = "O=c1[nH]c2ccccc2nc1CBr"
qualitative_label = "label 0"

[[record]]
compound = "CCOC(=O)/C=C(\\C)OCC"
qualitative_label = "label 0"

[[record]]
compound = "COc1cc(C2c3cc4c(cc3[C@@H](Nc3ccc5c(c3)OCCO5)C3COC(=O)[C@H]23)OCO4)cc(OC)c1O (stereo partly drawn)"
qualitative_label = "label 1"

[[record]]
compound = "O=C1C2=Cc3ccccc3CCN2c2ccccc21"
qualitative_label = "label 0"

[[record]]
compound = "OC(CNc1ccnc2cc(Cl)ccc12)CNc1ccnc2cc(Cl)ccc12"
qualitative_label = "label 0"

[[record]]
compound = "C1=C(c2ccccc2)C(c2ccc(OCCN3CCCCC3)cc2)Oc2ccccc21 (stereo not drawn)"
qualitative_label = "label 0"

[[record]]
compound = "Cc1cc(C)c(C(=O)/C=C/C(=O)c2ccccc2)c(C)c1"
qualitative_label = "label 0"

[[record]]
compound = "CC(=O)OC1CCC23COC(CC(C)C2C)C3(Br)C1 (stereo not drawn)"
qualitative_label = "label 0"

[[record]]
compound = "Cc1cc2c(cc1Cl)Sc1nnc(C)n1S2(=O)=O"
qualitative_label = "label 0"

[[record]]
compound = "CCC1CCC(CC)C1=O (stereo not drawn)"
qualitative_label = "label 0"

[[record]]
compound = "C/C=C/CC(C/C=C/C)C1CC[N-]CC1.C/C=C/CC(C/C=C/C)C1CC[N-]CC1.[Cl][Pt+2]([Cl])([Cl])[Cl]"
qualitative_label = "label 0"

[[record]]
compound = "CCC(CC)(C(=O)Nc1ccc2c(c1)c(=O)c1ccccc1n2C)C(=O)Nc1ccc2c(c1)c(=O)c1ccccc1n2C"
qualitative_label = "label 0"


These measurements were taken from PubChem BioAssay (NCI).
